Each record here notes measured growth.
Tested on: T-47D breast
run_description: NCI-60 one-dose screen, 48 h (100 = growth as untreated, 0 = no growth, -100 = all killed)
stated_conditions: 10 µM
This is part of a sample that, as a whole, favours compounds with a hit. Of some 83,000 tested, about 20% had one in any assay.
Form entry: value (%) — number only.

compound | target_under_test | value_unit | measured_number
CC1=C(CN(O)C(N)=O)C2=C(C)C3(CC3)[C@@](C)(O)C(=O)C2=C1 | T-47D breast | % | -3.77

Write down the reported growth of C[C@@H]1CCC/C=C/[C@H]2C[C@@H](O)C[C@@H]2[C@@H](O)/C=C/C(=O)O1 , test system: T-47D breast. 7.4

Input CC(C)=CCc1c2c(c(O)c3c1O[C@]14C(=C[C@@H]5C[C@H]1C(C)(C)O[C@@]4(C/C=C(/C)C(=O)O)C5=O)C3=O)C=CC(C)(C)O2 -40.7

* * *

Tested on: TK-10 renal
run_description: NCI-60 one-dose screen, 48 h
stated_conditions: 10 µM
Compounds without any hit were thinned out: in the full panel of roughly 83,000, 20% have a hit. The source made the active and inactive calls. The calls were made as follows: active = growth percent below 10; inactive = the rest.
Hello, when you answer, please use one of the following outcomes: active, inactive

See these solved cases before continuing.
molecule | class
CC1=C2C(=C[C@@](C)(COC(=O)c3ccc(S(=O)(=O)F)cc3)[C@@H]2OC(=O)c2ccc(S(=O)(=O)F)cc2)C(=O)[C@](C)(O)C12CC2 | active
CC1=C2C(=C[C@@](C)(COS(C)(=O)=O)[C@@H]2O)C(=O)[C@](C)(O)C12CC2 | active
COC(=O)[C@H]1[C@@H](O)[C@@]2(O)c3c(OC)cc(OC)cc3O[C@@]2(c2ccc(OC)cc2)[C@@H]1c1ccccc1 | active
CC1=C2C(=O)[C@](C)(CO)C=C2C(=O)[C@](C)(O)C12CC2 | active
COc1cc(OC)c(S(=O)(=O)N(CCCl)CCCl)cc1C(=O)/C=C/c1ccc(Cl)cc1 | inactive
CC1=C[C@H]2O[C@@H]3C[C@H]4OC(=O)/C=C\C=C\[C@H]([C@@H](C)O)OCC[C@@H](C)[C@H](O)C(=O)OC[C@@]2(CC1)[C@]4(C)[C@]31CO1 | active
NC1CCc2cc(O)c(O)cc2C1 (configuration not stated) | inactive
COc1cc2c(O[C@@H]3OC[C@H](OC(C)=O)[C@H](OC(C)=O)[C@H]3O)c3c(c(-c4ccc5c(c4)OCO5)c2cc1OC)C(=O)OC3 | inactive

Please indicate how the test categorized N#Cc1c(-n2c(Br)c(Br)c3cc(Br)ccc32)[nH]c2c(Br)cc(Br)cc12 . active

Here is the next molecule: CN(CCF)/N=N/c1nc[nH]c1C(N)=O inactive

What about CC1=C[C@H]2O[C@@H]3C[C@H]4OC(=O)/C=C\C=C\[C@H]([C@@H](C)O)OCC/C(C)=C/C(=O)OC[C@@]2(CC1)[C@]4(C)[C@]31CO1 ? active

Also, CC(=O)O[C@@H]1[C@@H]2O[C@H]2[C@@](C)(O)C(=O)[C@@H](C)C/C=C/[C@H]2[C@@H]3O[C@]3(C)[C@@H](C)C3[C@H](Cc4ccccc4)NC(=O)[C@@]312 (some centres not stated) please. active

* * *

System: HL-60(TB) leukemia
run_description: NCI-60 one-dose screen, 48 h (100 = growth as untreated, 0 = no growth, -100 = all killed)
stated_conditions: 10 µM unless noted
Compounds without any hit were thinned out: in the full panel of roughly 83,000, 20% have a hit. Activity calls are given as the source filed them. The calls were made as follows: active = growth percent below 10; inactive = the rest.
growth for assorted compounds

Would you please look over these solved cases?
compound | result
CCOC(=O)c1c(Nc2ccccc2)nn2c(N)c(C#N)c(-c3ccc(Cl)cc3)nc12 | 102% (inactive)
Cc1ccc(-c2nnc(SCc3ccc(O)c4ncccc34)o2)cc1 | 4.59% (active)
C=C(C=O)[C@@H]1CC[C@]2(C(=O)O)CC[C@]3(C)C(CC[C@@H]4[C@@](C)(CCC#N)[C@H](C(=C)C=O)CC[C@]43C)[C@@H]12 (stereo partly drawn) | 2.63% (active)
CC(=C(c1ccc(OCCN2CCCC2)cc1)c1ccc(OCCN2CCCC2)cc1)c1ccc(Cl)cc1 | -53.7% (active)
COc1cc(NC(=O)Nc2cccc(-c3cc(=O)c4c(OC)c(OC)c(OC)cc4o3)c2)cc(OC)c1OC | 45% (inactive)
CN(Cc1ccccc1)S(=O)(=O)/N=C1\NC(=O)NC1=C(Cl)Cl | -29.8% (active)
CCCCNNC(=O)c1ccc(-c2cccc(F)c2F)cc1 | 28.4% (inactive)
O=C(c1ccc(Cl)cc1)C1[C@H](c2ccc(Cl)cc2)[C@@H](c2ccccc2)NC12C(=O)Nc1ccc(Br)cc12 (stereo partly drawn) | 22.3% (inactive)
CN1CCN(c2ccc3c(C(N)=O)c(NC(=O)c4ccc(C(C)(C)C)cc4)sc3c2)CC1 | 28.5% (inactive)
COc1cc2nc(Cl)nc(Nc3cccc(C4=Nc5c(N)nc(N)nc5NC(c5ccc6c(c5)OCO6)C4)c3)c2cc1OC (stereo not drawn) | 68.4% (inactive)

Return reported growth; argument: O=C(Nc1cccc(C(F)(F)F)c1)c1cc(-c2ccc(F)cc2F)ccc1O -40.7% (active)

Query N#Cc1ccc(/C=N/NC(=O)c2[nH]c3ccc(Br)cc3c2-c2ccccc2)s1 next -40% (active)

Another: Cc1cnc2nc(NN)[nH]n12 100% (inactive)

* * *

Entries annotated with measured growth
Test system: HL-60(TB) leukemia
run_description: NCI-60 one-dose screen, 48 h (100 = growth as untreated, 0 = no growth, -100 = all killed)
stated_conditions: 10 µM unless noted
Procedure: Growth inhibition of the HL-60(TB) human tumor cell line is measured as a screen for anti-cancer activity. Cells are grown in 96 well plates and exposed to the test compound for 48 hours. Compounds are tested at a single concentration, which is 10^-5 M for most compounds. The reported endpoint is percent growth (GI% or GIPRCNT), where numbers from 0 - 100% represent growth inhibition, and numbers from -100% - 0 represent cell death. For example, a value of 40 represents 60% growth inhibition. […]
About 83,000 compounds went through this panel and 20% of them were active in at least one assay; those are over-represented in the sample as a whole.
# number only, unit % dropped from output

Reference set, count: 2
molecule | target_under_test | value_unit | measured_number
NS(=O)(=O)c1ccc(CCn2c(-c3ccc(C(=O)O)cc3)nc(-c3ccccc3)c2-c2ccccc2)cc1 | HL-60(TB) leukemia | % | 101
CC1=C(C)C(=O)C(Nc2ccccc2)=C(Cl)C1=O | HL-60(TB) leukemia | % | 45.6

What does the data say about its growth? Entry: CCCCc1nc2c(N)nc3ccccc3c2n1Cc1cccc(CN)c1 11.9

Check CC(C)(C)OC(=O)NCc1ccc(CNc2c([N+](=O)[O-])cnc3ccccc23)cc1 too. 49.1

Okay, and CN1CCN(c2ccc(C(=O)/C=C/c3cc(F)cc(C(F)(F)F)c3)cc2)CC1 ? 3.06

Now this one: CCN(CC)c1cn(-c2ccc(S(N)(=O)=O)cc2)nn1 105

Also, [Cl][Ru].c1ccc(-c2cccc(-c3ccccn3)n2)nc1.c1ccc(-c2ccnc3c2ccc2c(-c4ccccc4)ccnc23)cc1 please. -10.5

Now this one: COc1ccc(NC(=O)CSc2nnc(-c3ccc4nc(-c5ccc(OC)c(OC)c5)[nH]c4c3)o2)cc1OC 111

Please do the same for COc1ccc(/C=N/NC(=O)c2c(N)nn(C)c2Nc2ccccc2)cc1Oc1ccccc1 as well. 100

Repeat with CC1=C(SCC(=O)OCCCCCC(C)C)C(=O)c2ccccc2C1=O 86.8

And then CC1(C)CC[C@]2(C(=O)O)CC[C@]3(C)C(=CC[C@@H]4[C@@]5(C)CC/C(=N\OCCC#N)C(C)(C)[C@@H]5CC[C@]43C)[C@@H]2C1 , what is it? 148

# repeat for CCCCCC[n+]1ccc(SCC(=O)n2ccc3ccccc32)c2ccccc21 74.8

One more molecule: CN(c1ccc(Cl)cc1)S(=O)(=O)c1ccc(-c2cnc(C3CC3)o2)cc1 -15.9

Then this molecule: CCC(=O)Nc1cc(Nc2cc(NC3CC3)n3ncc(C#N)c3n2)ccc1C 5.84

And CCN1CCN(Cc2cn(-c3ccc(S(N)(=O)=O)cc3)nn2)CC1 ? 110

Also, Cc1ccc2c(c1)C(=O)/C(=C/c1cccc(F)c1)S2 please. 98.9

Queued: c1ccc(C(c2nc3ncncc3[nH]2)N2CSc3nc4ncncc4n3C2)cc1 (stereo not drawn) 39.8

Now consider CS(=O)(=O)c1ccc2c(c1)c1c(n2Cc2ccc(Cl)cc2)CCCC1 and answer again. 70.5

Follow-up item: CCCN1C=C/C(=C\C(=O)n2ccc3ccccc32)c2ccccc21 87.4

* * *

System: HL-60(TB) leukemia
run_description: NCI-60 one-dose screen, 48 h (100 = growth as untreated, 0 = no growth, -100 = all killed)
stated_conditions: 10 µM unless noted
This is part of a sample that, as a whole, favours compounds with a hit. Of some 83,000 tested, about 20% had one in any assay.
result_type: growth (%)
Express the result in % but write the number alone.

Examples from the recorded data:
compound | value_unit | measured_number
C[C@@H]1CN(c2ccc3ncc(C#Cc4cncc(C(=O)Nc5ccc(CN6CCN(C)CC6)c(C(F)(F)F)c5)c4)n3n2)C[C@H](C)O1 | % | -30.7
CN1CCN(c2nc(-c3cnc4ccccc4n3)cc3ccccc23)CC1 | % | -36.2
C=CCn1c(SCC(=O)Nc2ccc(C(=O)/C=C/c3ccc(Br)cc3)cc2)nnc1-c1c[nH]c2ccccc12 | % | 84.3
COc1ccccc1N1CCN(C2=NN=C(c3cccc(Cl)c3)c3ccccc3C2)CC1 | % | -55.5
Fc1ccccc1/C=C(/C1=NCCN1)n1cnc2ccccc21 | % | 94.5

Below: the item to evaluate.
Entry Cc1nc(-c2ccccc2O)ccc1C(=O)N=Nc1c(O)[nH]c2ccc(Br)cc12 : reported growth = ? 114
